Provide the reported % Total Binding relative to Control I of each item.
Molecular target: T1, PRLR-expressing cells (T47D) (Homo sapiens, UniProt P16471)
T1 construct: a native PRLR expressing cell line (T47D); endogenous in cells; host or cells: T47D
T1 sequence (P16471 25-622): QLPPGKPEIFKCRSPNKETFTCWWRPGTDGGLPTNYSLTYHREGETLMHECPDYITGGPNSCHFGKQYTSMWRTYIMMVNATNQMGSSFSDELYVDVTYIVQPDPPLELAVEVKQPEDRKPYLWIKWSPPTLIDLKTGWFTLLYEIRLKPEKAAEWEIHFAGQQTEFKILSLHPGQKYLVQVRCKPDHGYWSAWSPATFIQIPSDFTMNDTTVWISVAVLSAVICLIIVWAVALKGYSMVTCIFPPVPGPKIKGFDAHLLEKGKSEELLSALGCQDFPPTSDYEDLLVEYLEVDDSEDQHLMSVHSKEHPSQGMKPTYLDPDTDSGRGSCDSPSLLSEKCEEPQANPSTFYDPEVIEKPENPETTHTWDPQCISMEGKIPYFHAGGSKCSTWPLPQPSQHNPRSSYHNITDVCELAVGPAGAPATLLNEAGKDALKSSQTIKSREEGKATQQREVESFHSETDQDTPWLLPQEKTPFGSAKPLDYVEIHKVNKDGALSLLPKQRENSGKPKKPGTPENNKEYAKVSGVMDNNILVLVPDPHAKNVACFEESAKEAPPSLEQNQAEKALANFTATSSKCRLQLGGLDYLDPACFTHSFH
Assay: Antibody binding and internalization by PRLR-expressing cells (imaging)
Assay type: cell-based
Conditions: [mAb] (0.67 nM), whole cell alexa488 intensity at 37° C.
Give bare numbers, in %.

response.value for H1H6762P: anti-PRLR antibody, human IgG1 Fc; HCVR/LCVR SEQ ID NOs 2/10 (antibody, V domains shown, human IgG1 Fc) VH: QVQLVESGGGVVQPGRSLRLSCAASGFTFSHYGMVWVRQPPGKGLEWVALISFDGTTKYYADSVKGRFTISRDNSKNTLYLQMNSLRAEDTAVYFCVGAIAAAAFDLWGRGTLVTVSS VL: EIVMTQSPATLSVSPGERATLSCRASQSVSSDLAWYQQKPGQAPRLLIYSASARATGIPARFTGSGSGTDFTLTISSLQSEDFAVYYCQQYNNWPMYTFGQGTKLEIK (field: % Total Binding relative to Control I) = 176.7

Turning now to a further molecule:
response.value for H1H6958N2: human IgG1 Fc form of H2M6958N2; anti-PRLR, receptor blocking; HCVR/LCVR SEQ ID NOs 290/298 (antibody, V domains shown, human IgG1 Fc) VH: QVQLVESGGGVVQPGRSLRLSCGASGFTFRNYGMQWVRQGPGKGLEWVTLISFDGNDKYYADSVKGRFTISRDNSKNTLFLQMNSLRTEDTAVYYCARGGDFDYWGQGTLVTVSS VL: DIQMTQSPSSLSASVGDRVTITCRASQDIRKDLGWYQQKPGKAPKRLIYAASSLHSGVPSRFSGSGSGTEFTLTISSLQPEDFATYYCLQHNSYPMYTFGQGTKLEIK (field: % Total Binding relative to Control I) = 161.5
